Data provenance is the supplement of paper PMC13380429.

test system: Vero E6 infected with SARS-CoV-2; assay: inhibition of SARS-CoV-2 cytopathic effect; higher = more antiviral protection, active = above 15; conditions: 10000 nM; 48 h
reported-endpoint: inhibition of SARS-CoV-2 cytopathic effect (%)

- molecule: "CN(C)C(=O)N[C@H]1CC[C@H](CCN2CCN(c3cccc(Cl)c3Cl)CC2)CC1"
  assay-result: -3.84
- molecule: "COc1ccc(CN(C(=O)[C@@H](N)Cc2c(C)cc(C(N)=O)cc2C)[C@@H](C)c2ncc(-c3ccccc3)[nH]2)cc1C(=O)O"
  assay-result: 1.03
- molecule: "O=C(c1ccccn1)c1cnn2c(-c3ccncc3)ccnc12"
  assay-result: -0.62
- molecule: "Nc1nc2[nH]cc(CCc3ccc(C(=O)N[C@@H](CCC(=O)O)C(=O)O)cc3)c2c(=O)[nH]1"
  assay-result: -1.3
- molecule: "CCNC(=O)NS(=O)(=O)c1sc(CC(C)C)cc1-c1ccc(Cn2c(-c3ccccc3)nc(OC)c2C=O)cc1"
  assay-result: 0.67
- molecule: "C=C1C[C@@]2(O)O[C@@]3(C[C@H]2C(C)C)[C@@H](C)CC[C@@H]13"
  assay-result: -2.49
- molecule: "O=C1NCCN1CCN1CCC(c2cn(-c3ccc(F)cc3)c3ccc(Cl)cc23)CC1"
  assay-result: -11.3
- molecule: "CCOc1cc([C@@H](CS(C)(=O)=O)N2C(=O)c3cccc(NC(C)=O)c3C2=O)ccc1OC"
  assay-result: -2.14
- molecule: "CC(CN(C)C)C(C)(O)Cc1ccc(Cl)cc1 (stereo not drawn)"
  assay-result: -0.69
- molecule: "COc1ccc(CC(=O)NC(/N=C(\\NC#N)Nc2cccc3ncccc23)C(C)(C)C)cc1OC (stereo not drawn)"
  assay-result: -0.99
- molecule: "CCCCC[C@H](O)/C=C/[C@H]1[C@H](O)CC(=O)[C@@H]1C/C=C\\CCCC(=O)O"
  assay-result: 0.05
- molecule: "CCCc1c2oc(C(=O)O)cc(=O)c2cc2c(=O)cc(C(=O)O)n(CC)c12"
  assay-result: 0.79
- molecule: "C=CC(=O)Nc1cccc(Oc2nc(Nc3ccc(N4CCN(C)CC4)cc3)nc3ccsc23)c1"
  assay-result: -10.1
- molecule: "O=[N+]([O-])c1ccccc1S(=O)(=O)NCC1CCC(CNC[C@H]2CCc3ccccc3C2)CC1 (stereo partly drawn)"
  assay-result: 42.4
- molecule: "COc1cc(OC)c(OC)cc1C=O"
  assay-result: 0.07
- molecule: "C[n+]1cccc(C(=O)[O-])c1"
  assay-result: 0.82
- molecule: "CCCc1c(OCC(O)COc2ccc3c(=O)cc(C(=O)O)oc3c2CCC)ccc(C(C)=O)c1O (stereo not drawn)"
  assay-result: 3.02
- molecule: "CON(C)C(=O)[C@H](O)[C@H](Cc1ccccc1)NC(=O)c1cc2cc(Cl)ccc2[nH]1"
  assay-result: 4.39

###

system: Vero E6 infected with SARS-CoV-2; test: inhibition of SARS-CoV-2 cytopathic effect; higher = more antiviral protection, active = above 15; conditions: 100 nM; 48 h
Item-by-item account of inhibition of SARS-CoV-2 cytopathic effect
reported-endpoint: inhibition of SARS-CoV-2 cytopathic effect (%)

- molecule: "COc1cc(N2CCC(N3CCN(C)CC3)CC2)ccc1Nc1ncc(Cl)c(Nc2ccccc2P(C)(C)=O)n1"
  unit-symbol: "%"
  assay-result: -2.21
- molecule: "COc1ccc(COc2ccc(Cc3cnc(N)nc3N)cc2OC)cc1"
  unit-symbol: "%"
  assay-result: -0.01
- molecule: "Cn1cc(-c2ccc3nnc(Sc4ccc5ncccc5c4)n3n2)cn1"
  unit-symbol: "%"
  assay-result: -1.37
- molecule: "CCCCCCCCCCCCCCCC(=O)OC[C@@H](NC(=O)C(Cl)Cl)[C@H](O)c1ccc([N+](=O)[O-])cc1 [chloramphenicol-palmitate]"
  unit-symbol: "%"
  assay-result: -1.3
- molecule: "CCN1C[C@]2(OC(=O)c3ccccc3NC(C)=O)CC[C@H](OC)[C@@]34[C@@H]2C[C@@H]([C@@H]13)[C@@]1(O)C[C@H](OC)[C@H]2C[C@@H]4[C@]1(O)[C@H]2OC"
  unit-symbol: "%"
  assay-result: 1.75
- molecule: "Oc1cc(O)cc(O)c1"
  unit-symbol: "%"
  assay-result: 2.28
- molecule: "CS(=O)(=O)c1ccc(-c2cn3ccccc3n2)cc1"
  unit-symbol: "%"
  assay-result: 3.07
- molecule: "NC(=O)c1cccc(-c2cccc(OC(=O)NC3CCCCC3)c2)c1"
  unit-symbol: "%"
  assay-result: 1.96
- molecule: "CCCOC(C(=O)OC1CCN(C)CC1)(c1ccccc1)c1ccccc1"
  unit-symbol: "%"
  assay-result: 0.85

###

# Lookup of reported inhibition of SARS-CoV-2 cytopathic effect keyed by entry
tested on: Vero E6 infected with SARS-CoV-2; experiment: inhibition of SARS-CoV-2 cytopathic effect; higher = more antiviral protection, active = above 15; settings: 833.33 nM; 48 h
reported-endpoint: inhibition of SARS-CoV-2 cytopathic effect (%)

- compound: "NS(=O)(=O)c1cc2c(cc1Cl)NC(C1CC3C=CC1C3)NS2(=O)=O (configuration not stated) [cyclothiazide]"
  assay-result: -0.08
- compound: "O=c1n(CCCN2CCN(c3cccc(Cl)c3)CC2)nc2ccccn12"
  assay-result: -1.12
- compound: "CCc1cc(O)c(Oc2ccc(C(N)=O)cc2F)cc1F"
  assay-result: -0.53
- compound: "COc1cc2nc(N3CCCN(C)CC3)nc(NC3CCN(Cc4ccccc4)CC3)c2cc1OC"
  assay-result: 1.53
- compound: "COc1ccc(-c2csc(NC(=O)[C@H]3CCCCN3S(=O)(=O)c3ccc(C)cc3)n2)cc1"
  assay-result: 2.63
- compound: "CCC[C@@H](NC(=O)N1C(=O)C(CC)(CC)[C@@H]1Oc1ccc(C(=O)N2CCN(C)CC2)cc1)c1ccc2c(c1)OCO2"
  assay-result: 1.96
- compound: "NS(=O)(=O)c1cc(C(=O)O)c(NCc2ccco2)cc1Cl [furosemide]"
  assay-result: 0.41
- compound: "CCC1=C[C@@H]2CN(C1)Cc1c([nH]c3ccccc13)[C@@](C(=O)OC)(c1cc3c(cc1OC)N(C)[C@H]1[C@@](O)(C(=O)OC)[C@H](OC(C)=O)[C@]4(CC)C=CCN5CC[C@]31[C@@H]54)C2"
  assay-result: -2.48
- compound: "O=C(N[C@H](Cc1ccccc1)C(=O)O)c1sc2cc(F)ccc2c1Cl"
  assay-result: 1.13
- compound: "CC(C)(C(=O)O)c1ccc(C(=O)CCCN2CCC(OC(c3ccccc3)c3ccccc3)CC2)cc1"
  assay-result: -2.56
- compound: "CCOC(=O)N1CSC[C@H]1C(=O)O"
  assay-result: 4.95
- compound: "CC(=O)Nc1ccc(O)cc1"
  assay-result: 0.33
- compound: "Cc1cccc(C)c1NC(=O)c1ccccc1C(=O)O [ftaxilide]"
  assay-result: 0.63
- compound: "CC(C)[C@H]1CC[C@H](C(=O)N[C@H](Cc2ccccc2)C(=O)O)CC1 [nateglinide]"
  assay-result: 1.09
- compound: "CC1=C(/C=C/C(C)=C/C=C/C(C)=C/C=C/C=C(C)/C=C/C=C(C)/C=C/C2=C(C)CCCC2(C)C)C(C)(C)CCC1"
  assay-result: 1.85
- compound: "COc1cc2c(cc1OC)CN(CCc1ccc(NC(=O)c3cc(OC)c(OC)cc3NC(=O)c3cnc4ccccc4c3)cc1)CC2"
  assay-result: 1.99
- compound: "C1=Cc2cccc(OCC3CNCCO3)c2C1 (configuration not stated)"
  assay-result: 0.43

###

test system: Vero E6 infected with SARS-CoV-2; assay: inhibition of SARS-CoV-2 cytopathic effect; higher = more antiviral protection, active = above 15; details: 1 nM; 48 h
Item-by-item account of inhibition of SARS-CoV-2 cytopathic effect
reported-endpoint: inhibition of SARS-CoV-2 cytopathic effect (%)

- compound: "C#C[C@]1(O)CC[C@H]2[C@@H]3CCc4cc(OC)ccc4[C@H]3CC[C@@]21C"
  assay-result: 0.06
- compound: "C=C1C(=O)O[C@@H]2[C@H]3O[C@]3(C)CC/C=C(\\C)CC[C@@H]12 [parthenolide-(alternate-stereo)]"
  assay-result: 0.91
- compound: "CC(C)(C)c1cc(C(C)(C)C)c(NC(=O)c2c[nH]c3ccccc3c2=O)cc1O"
  assay-result: -1.65
- compound: "c1ccc2c(c1)CCCc1cc(NCCN3CCOCC3)nnc1-2"
  assay-result: 0.07
- compound: "O=C1[C@H](Cc2ccc(O)cc2)N2C(=O)CCN(C(=O)NCc3ccccc3)[C@H]2CN1Cc1cccc2ccccc12"
  assay-result: -0.18
- compound: "N[C@H](C(=O)O)c1ccc(O)cc1"
  assay-result: 2.15
- compound: "CN(C)CC/C=C1/c2ccccc2Sc2ccc(Cl)cc21"
  assay-result: 5.54
- compound: "C[C@H](NC(=O)C(C)(C)Oc1ccc(C(F)(F)F)cn1)[C@@H](Cc1ccc(Cl)cc1)c1cccc(C#N)c1"
  assay-result: -0.8
- compound: "CCCCCCCCCCCC(=O)N(CCO)CCO [lauric-diethanolamide]"
  assay-result: 1.82
